Answer each item with its documented Hemoglobin Hgb.
Tested on: ICR (CD-1) mice
ASSAY NAME: In vivo toxicity in mice (SC, IN, IP routes)
ASSAY CONTEXT: SC, 3 doses (1hr, 12hr, 24hr); head doses: RN7-IN10, RN7-IN8 20 mg/kg; RN7-IN9, RN7-IN6 10 mg/kg; day 7; mean±SD, 4 mice
Method: In this study, 4-week old male, pathogen free ICR (CD-1) mice were purchased from InVivos (Lim Chu Kang, Singapore) and used to assess the in vivo toxicity and antibacterial efficacy of the novel peptides, as these animals are by far the most commonly used model for the study of pneumococcal disease ([Chiavolini, Pozzi & Ricci, 2008]). The mice were kept in ventilated polycarbonate cages (12 h light/dark cycle, 20 ± 2 °C and 55% relative humidity). […]
Unit g/dL implied. Number only.

-- ask Checklist item: Hemoglobin Hgb tested on ICR (CD-1) mice, entry FLGGLIKWKWPWWPWRR-NH2 [RN7-IN10, hybrid peptide of ranalexin (residues 1-7) and indolicidin (residues 4-13)] , value?
-- reply 13.75

-- ask State its Hemoglobin Hgb on ICR (CD-1) mice: FLGGLIKKWPWWPWRR-NH2 [RN7-IN9, hybrid peptide of ranalexin (residues 1-7) and indolicidin (residues 5-13)]
-- reply 15.75

-- ask Lookup: Hemoglobin Hgb / ICR (CD-1) mice / FLGGLIKWPWWPWRR-NH2 [RN7-IN8, hybrid peptide of ranalexin (residues 1-7) and indolicidin (residues 6-13)]
-- reply 15.82

-- ask Report Hemoglobin Hgb for FLGGLIKWWPWRR-NH2 [RN7-IN6, hybrid peptide of ranalexin (residues 1-7) and indolicidin (residues 8-13)] tested on ICR (CD-1) mice.
-- reply 16.17

====

Test system: ICR (CD-1) mice
ASSAY NAME: In vivo toxicity in mice (SC, IN, IP routes)
ASSAY CONTEXT: SC, 3 doses (1hr, 12hr, 24hr); head doses: RN7-IN10, RN7-IN8 20 mg/kg; RN7-IN9, RN7-IN6 10 mg/kg; day 7; mean±SD, 4 mice
Method: In this study, 4-week old male, pathogen free ICR (CD-1) mice were purchased from InVivos (Lim Chu Kang, Singapore) and used to assess the in vivo toxicity and antibacterial efficacy of the novel peptides, as these animals are by far the most commonly used model for the study of pneumococcal disease ([Chiavolini, Pozzi & Ricci, 2008]). The mice were kept in ventilated polycarbonate cages (12 h light/dark cycle, 20 ± 2 °C and 55% relative humidity). […]
Would you mind telling me the reported Hematocrit, HCT of each entry?
Returns: string containing the number followed by the unit.

-- ask Dear colleague, I am looking for the recorded Hematocrit, HCT of the following substance: FLGGLIKWKWPWWPWRR-NH2 [RN7-IN10, hybrid peptide of ranalexin (residues 1-7) and indolicidin (residues 4-13)]
-- reply 41.5±3.7%

-- ask What Hematocrit, HCT value was documented for this substance, FLGGLIKWPWWPWRR-NH2 [RN7-IN8, hybrid peptide of ranalexin (residues 1-7) and indolicidin (residues 6-13)] ?
-- reply 46.15±3.69%

-- ask What value of Hematocrit, HCT has been reported for the following substance? FLGGLIKKWPWWPWRR-NH2 [RN7-IN9, hybrid peptide of ranalexin (residues 1-7) and indolicidin (residues 5-13)]
-- reply 46.15±5.19%

-- ask Endpoint output: Hematocrit, HCT of FLGGLIKWWPWRR-NH2 [RN7-IN6, hybrid peptide of ranalexin (residues 1-7) and indolicidin (residues 8-13)] . Value?
-- reply 49.2±4.43%
